As shown below, each of these binders has a reported OD450 at 0.1 nM antibody value.
# Assayed system: T1, murine GPC3-his protein (Sino Biological, Cat. No. 50989-M08B) (murine, UniProt Q8CFZ4 25-558)
# T1 construct: Bought protein; also called murine GPC3 protein
# T1 sequence (Q8CFZ4 25-558 limits assumed): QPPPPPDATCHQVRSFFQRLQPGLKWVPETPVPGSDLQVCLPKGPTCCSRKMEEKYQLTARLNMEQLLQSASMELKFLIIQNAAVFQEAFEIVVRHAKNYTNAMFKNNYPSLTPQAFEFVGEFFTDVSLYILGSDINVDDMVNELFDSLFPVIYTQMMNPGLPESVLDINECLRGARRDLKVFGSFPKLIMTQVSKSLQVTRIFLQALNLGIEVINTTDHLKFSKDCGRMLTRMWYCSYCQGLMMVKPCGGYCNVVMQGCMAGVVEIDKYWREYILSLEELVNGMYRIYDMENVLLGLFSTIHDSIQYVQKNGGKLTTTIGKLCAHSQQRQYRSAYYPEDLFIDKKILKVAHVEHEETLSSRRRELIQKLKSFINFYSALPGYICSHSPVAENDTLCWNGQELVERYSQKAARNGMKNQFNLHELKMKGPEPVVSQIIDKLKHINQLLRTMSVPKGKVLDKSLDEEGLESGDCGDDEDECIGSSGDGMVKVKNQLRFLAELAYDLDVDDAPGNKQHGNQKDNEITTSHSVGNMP
# Protocol notes: ELISA, coated murine GPC3-His;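 also: antigen coated on plates at 1 µg/mL, test antibody bound for 2 h at 37 °C, detected with HRP-conjugated secondary antibody and TMB substrate after acid stop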

>>> result("F2.55.11 human-murine chimeric antibody (antibody, human IgG1, kappa, V domains shown) VH: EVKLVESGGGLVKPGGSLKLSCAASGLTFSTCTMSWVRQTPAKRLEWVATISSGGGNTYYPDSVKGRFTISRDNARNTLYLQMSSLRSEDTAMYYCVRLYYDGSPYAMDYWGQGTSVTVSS VL: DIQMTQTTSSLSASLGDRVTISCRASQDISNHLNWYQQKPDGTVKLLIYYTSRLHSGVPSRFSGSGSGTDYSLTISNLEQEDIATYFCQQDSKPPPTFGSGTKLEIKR")
"0.05 OD450 nm"
>>> result("F1.145.22 human-murine chimeric antibody (antibody, human IgG1, kappa, V domains shown) VH: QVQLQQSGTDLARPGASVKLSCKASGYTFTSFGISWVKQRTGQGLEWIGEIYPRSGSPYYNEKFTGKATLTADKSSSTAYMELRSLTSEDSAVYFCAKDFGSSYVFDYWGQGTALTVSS VL: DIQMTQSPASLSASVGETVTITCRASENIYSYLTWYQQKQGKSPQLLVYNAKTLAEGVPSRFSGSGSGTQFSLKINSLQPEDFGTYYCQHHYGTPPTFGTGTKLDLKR")
"0.75 OD450 nm"

Next, consider the following binder.
Ask | For the binder shown here, F2.169.2 human-murine chimeric antibody (antibody, human IgG1, kappa, V domains shown) VH: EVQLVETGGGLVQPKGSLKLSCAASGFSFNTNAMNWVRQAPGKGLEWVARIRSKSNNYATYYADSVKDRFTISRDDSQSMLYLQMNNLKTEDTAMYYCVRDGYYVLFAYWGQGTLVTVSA VL: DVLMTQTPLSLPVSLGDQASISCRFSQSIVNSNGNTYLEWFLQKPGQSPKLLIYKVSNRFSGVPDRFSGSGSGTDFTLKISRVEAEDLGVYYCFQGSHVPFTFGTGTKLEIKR , give the reported OD450 at 0.1 nM antibody.
Reply | 1.68 OD450 nm

Hello, the source for this data is patent US20260116991A1, in case you need it.
